# Measured on: T1, human TL1A extracellular domain with N-terminal HIS and FLAG tag (human, UniProt O95150 72-251)
# T1 construct: the whole entry is named; also called TNFSF15
# T1 sequence: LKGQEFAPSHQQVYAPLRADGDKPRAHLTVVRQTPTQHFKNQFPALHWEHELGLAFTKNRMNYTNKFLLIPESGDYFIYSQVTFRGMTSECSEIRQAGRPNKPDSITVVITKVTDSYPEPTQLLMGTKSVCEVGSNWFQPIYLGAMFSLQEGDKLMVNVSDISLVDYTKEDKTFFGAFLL
# Experiment notes: SPR Run 9, antibody on Protein A, TL1A 5 ug/mL, timepoint 590
# TL1A Binding Level (Late) values compiled below
Please state the figure in RU; there is no need to write the unit.

Query: Fill in reported TL1A Binding Level (Late) for this entry: 320-601 (antibody, human IgG1, name in Kabat numbering, V domains shown, full-length human IgG1, lambda) VH: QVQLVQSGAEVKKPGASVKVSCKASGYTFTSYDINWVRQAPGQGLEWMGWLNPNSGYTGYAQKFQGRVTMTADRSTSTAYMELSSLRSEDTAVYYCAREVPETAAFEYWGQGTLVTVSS VL: QSVLTQPPSVSGAPGQRVTISCTSSSSDIGAGLGVHWYQQLPGTAPKLLIEGYYNRPSGVPDRFSGSKSGTSASLTITGLLPEDEGDYYCQSFDGTLSALFGGGTKLTVLG
Reply: 120

Query: Quickly give me recorded TL1A Binding Level (Late) for 320-598 (antibody, human IgG1, name in Kabat numbering, V domains shown, full-length human IgG1, lambda) VH: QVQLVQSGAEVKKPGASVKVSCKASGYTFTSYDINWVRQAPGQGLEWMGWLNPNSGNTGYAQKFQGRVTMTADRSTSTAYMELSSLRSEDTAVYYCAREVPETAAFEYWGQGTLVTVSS VL: QSVLTQPPSVSGAPGQRVTISCTSSSSDIGAGLGVLWYQQLPGTAPKLLIEGYYNRPSGVPDRFSGSKSGTSASLTITGLLPEDEGDYYCQSFDGTLSALFGGGTKLTVLG
Reply: 101

Now for another entry.
Query: Report TL1A Binding Level (Late) for 320-613 (antibody, human IgG1, name in Kabat numbering, V domains shown, full-length human IgG1, lambda) VH: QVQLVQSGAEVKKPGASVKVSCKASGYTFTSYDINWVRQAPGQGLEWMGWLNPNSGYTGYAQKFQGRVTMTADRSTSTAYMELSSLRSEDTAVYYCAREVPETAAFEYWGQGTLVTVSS VL: QSVLTQPPSVSGAPGQRVTISCTSSSSDIGAGLGVHWYQQLPGTAPKLLIEGYYNRPSGVPDRFSGSKSGTSASLTITGLLPEDEGDYYCQSWDYTLSALFGGGTKLTVLG
Reply: 131

Provenance of the data: patent US20170081400A1
